Overview of reported abundance fitness across a group of variants:
B1: Double-stranded RNA-binding protein Staufen homolog 1, residues 183 to 249; numbered along this chain, O95793 (parent)
chain: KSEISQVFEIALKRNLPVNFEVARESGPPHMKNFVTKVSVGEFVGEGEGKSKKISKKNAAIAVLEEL

Variants of: B1
assayRemarks: abundance fitness (aPCA) (normalised: wild type 0, dead -1); higher = more abundant; growth selection in yeast, the domain comes from the species named
conditions: Homo sapiens
readoutKind: abundance fitness

- H30M: -0.115
- N15H: 0.006
- L67N: -0.584
- G27N: -0.307
- V40S: -0.703
- L67G: -0.438
- K32G: 0.001
- V40M: -0.312
- K13G: -0.308
- F43M: -0.255
- P17V: -0.174
- K52D: -0.587
- E48N: -0.045
- L64Q: -0.448
- S55H: -0.895
- E66R: 0.123
- L64V: -0.5
- F20L: -0.286
- G47T: -0.868
- V18R: -0.657
- V18Y: -0.739
- S2I: -1.02
- E21C: -0.114
- A23I: 0.011
- A60L: -0.414
- K50S: -0.007
- Q6H: -0.415
- S2D: -0.382
- L16T: -0.594
- R24N: -0.207
- L67R: -0.751
- H30S: -0.114
- F34N: -0.468
- R14L: -0.139
- P28W: -0.316
- N33W: -0.054
- G47F: -0.945
